All figures here come from PubChem BioAssay.

assay-method-text: inhibitors of hydroxyurea-induced Chk1 phosphorylation, primary screen, imaging, HeLa, phospho-Chk1 antibody, percent positive cells (AID 1186)
experimental-conditions: hydroxyurea-induced phospho-Chk1 immunofluorescence imaging, higher = more signal
Calls of active or inactive are those of the source. No rule for the calls is given here.
Reported z-score values for the following molecules.

For orientation, consider the following solved cases.
| molecule | endpoint-result |
| --- | --- |
| C=CCC(OC(C)=O)[C@@H]1[C@@H](N(Cc2cccc3ccccc23)C(=O)c2ccc(C)cc2)c2cc(OCCCO)ccc2N1C(=O)c1ccc2ccccc2n1 (stereo not given in full) | -0.39 (inactive) |
| CCCCC(O)C1C=CC2C(=O)N(C)C(=O)C2N1Nc1ccccc1 (stereo not given) | 0.342 (inactive) |
| O=c1cccc(-c2ccccc2C(F)(F)F)o1 | -0.968 (inactive) |
| COc1ccc(NC(=O)O[C@H]2[C@H](OC(=O)Nc3ccc4c(c3)OCO4)[C@H](OC(=O)Nc3ccc4c(c3)OCO4)[C@@H](OC)O[C@@H]2CO)cc1 | -0.246 (inactive) |

z-score for `CCCCC(=C=CC[C@@H](O)c1cccc(OCCO)c1)C[C@@H](O)COCc1ccccc1` ?
-0.255 (inactive)

---

Reported z-score by item:
assay-method-text: P. aeruginosa biofilm formation inhibitors, primary screen, strain PAO1, LB-PBS medium, absorbance 600 nm (AID 1176); also: test concentration not given here
experimental-conditions: P. aeruginosa PAO1 growth/biofilm, A600, 12 h; higher = more signal
Active and inactive are the calls of the source. How the calls were made is not given here.

| molecule | z-score |
| --- | --- |
| CCCCC(=C=CC[C@H](O)c1ccc(OCCO)cc1)C[C@H](O)c1ccccn1 | -0.247 (inactive) |
| CCOC(=O)C1=CCC(c2cc3ccccc3[nH]2)N(S(=O)(=O)c2ccccc2[N+](=O)[O-])C1 (stereo not drawn) | 0.546 (inactive) |
| COc1ccc(CCNC(=O)[C@@H]2c3ccccc3C(=O)N(CC34CC5CC(CC(C5)C3)C4)[C@H]2c2ccc(CO)cc2)cc1 | 0.565 (inactive) |
| COc1ccc([Si](C)(C)[C@H]2[C@H](CCn3cc([C@H](O)c4ccccc4)nn3)O[C@@]3(C(=O)N(C)c4c(Br)cc(C)cc43)[C@@H]2C)cc1 | 1.03 (inactive) |
| COc1ccc(C#Cc2ccc3c(c2)[C@]2(C(=O)N3)[C@H](c3ccc(OCCO)cc3)N3[C@H](c4ccccc4)[C@H](c4ccccc4)OC(=O)[C@H]3[C@@H]2C(=O)O)cc1 | 2.25 (inactive) |

# get_value(readout='z-score', item= `C=CC[C@@]1(C(=O)O)N=C(c2ccc(OCCCO)cc2)O[C@@H]1c1ccccc1CN=[N+]=[N-]` )
-0.043 (inactive)

Quick one: `CCOC(=O)C1=C[C@@H](C(C)(C)C)N(S(=O)(=O)c2ccc(C)cc2)[C@H]1c1ccccc1Cl`
0.188 (inactive)

Field entry: `CCOC(=O)C[C@H]1[C@H](OC(=O)c2ccc(-c3ccccc3)cc2)[C@@H](NC(=O)CC(C)C)c2cc(OCCCO)ccc2N1C(=O)Cc1ccc(OC)cc1`
0.35 (inactive)

Field entry: CC(=O)n1cc(C(O)C2C=CC3C(=O)N(c4ccccc4)C(=O)C3N2Nc2ccccc2F)c2ccccc21 (stereo not drawn)
1.54 (inactive)

Also need `COCCOC(=O)N1C(=O)[C@@]2(c3ccccc31)[C@H](C(N)=O)[C@H]1C(=O)O[C@H](c3ccccc3)[C@H](c3ccccc3)N1[C@@H]2c1ccc(OCCO)cc1` , thanks.
-0.108 (inactive)

---

Consider the following molecules and their measured z-score readings.
assay-method-text: yeast growth modulation, basal conditions, primary screen, YJM789 clinical isolate, OD600, 24 h (AID 1089);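 also: growth of clinical yeast isolate S. cerevisiae YJM 789 seeded 1000 cells per well; test concentration not given here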
experimental-conditions: S. cerevisiae YJM789 growth, higher = more signal, called active from +8 up or from −8 down
// response body must contain only the number

| molecule | endpoint-result |
| --- | --- |
| COC(=O)[C@@]1(Cc2ccccc2)[C@H]2c3cc(C(=O)N4CCCC4)n(Cc4ccc(C(F)(F)F)nc4)c3C[C@H]2CN1C(=O)c1ccccc1 | -0.461 |
| C[C@H]1C2[C@H](Cc3ccccc3)NC(=O)[C@]23C(=O)NCC(=O)N2CCC[C@H]2C(=O)NC/C=C\C/C=C/C3[C@@H]2O[C@]12C (stereo partly specified) | -0.479 |
| CC(C)CNC(=O)[C@@H]1c2ccccc2C(=O)N(Cc2ccccc2Cl)[C@H]1c1ccc(CO)cc1 | -0.691 |
| [N-]=[N+]=NCc1ccccc1C[C@]1(C(=O)N2CCOCC2)N=C(c2ccc(OCCCO)cc2)O[C@H]1c1ccccc1CN=[N+]=[N-] | 1.66 |

Field request: z-score | item: `C=C(CC1([C@@H](NP(=O)(c2ccccc2)c2ccccc2)[C@H]2C[C@@H]2CCN(C(=O)OCC)S(=O)(=O)c2ccc(C)cc2)CC1)c1ccccc1`
0.585

What do you have for `COCCOC(=O)N1C(=O)[C@@]2(c3cc(C#CC4=CCCCC4)ccc31)[C@H](c1ccccc1OCCO)N1[C@H](c3ccccc3)[C@H](c3ccccc3)OC(=O)[C@H]1[C@@H]2C(N)=O` ?
0.05

---

assay-method-text: binders from COS7 lysate, DM2A8 probe, primary screen, torsin A project, cell lysate, small-molecule microarray, fluorescence 635/667 (AID 1065)
experimental-conditions: higher = more signal, COS7 lysate expressing mutant human TOR1A
Assign a class from recorded composite z-score; defined classes: LOW = under 0.1, MID = from 0.1 up to 0.5, HIGH = 0.5 and over

| molecule | label-class |
| --- | --- |
| COCCOC(=O)N1C(=O)[C@@]2(c3ccccc31)[C@H](C(=O)N1CCCCCCC1)[C@H]1C(=O)O[C@H](c3ccccc3)[C@H](c3ccccc3)N1[C@@H]2c1ccc(O)cc1 | HIGH |
| COC(=O)[C@@H]1N=C(c2ccc(OCCCO)cc2)O[C@@H]1c1ccccc1CN=[N+]=[N-] | LOW |
| C/C=C/CN(C(=O)C#Cc1ccccc1)[C@H](CO[Si](C)(C)C(C)(C)C)c1ccccc1 | MID |
| C=CCC(OC(C)=O)[C@@H]1[C@@H](N(Cc2cc3ccccc3o2)C(=O)Cc2ccc(OC)cc2)c2cc(OCCCO)ccc2N1C(=O)Cc1ccc2ccccc2c1 (some centres undefined) | LOW |
| COc1cccc(OC)c1C(=O)O[C@H]1[C@@H]2OC(=O)[C@H](Cc3cccc(Br)c3)C/C=C/C[C@@H](Cc3cccc(Br)c3)C(=O)O[C@H]2[C@@H](OC)O[C@@H]1CO | HIGH |

Returns: class label. Input: CC(C)C[C@@H]1NC(=O)[C@@]23C(=O)N[C@@H](Cc4ccccc4)C2[C@H](C)[C@@]2(C)O[C@H]2C3/C=C/C/C=C\CNC(=O)[C@@H](CC(C)C)NC1=O (some centres undefined)
LOW

Again, but for `CC(C)C(=C=CC[C@@H](O)c1cccc(OCCO)c1)CCO`
MID

Okay, and `O=C(NCC(F)(F)F)[C@@H]1c2ccccc2C(=O)N(CC23CC4CC(CC(C4)C2)C3)[C@H]1c1ccc(CO)cc1` ?
MID

What about this molecule? `C=C(COC)C(=O)CC[C@@H](OC(=O)c1cccnc1)c1cccc(OCCO)c1`
HIGH

// query: C=CCC(OC(C)=O)[C@@H]1[C@@H](N(Cc2ccc(-c3cccc(C(F)(F)F)c3)o2)C(=O)Cc2ccc(F)cc2)c2cc(OCCCO)ccc2N1C(=O)c1ccc2ccccc2n1 (some centres undefined)
MID

Request: `Cc1c(NC(=O)/C(C#N)=C/c2ccc(Cl)cc2)c(=O)n(-c2ccccc2)n1C`
LOW

Would you kindly repeat that for `CN(C)CCCC[C@@H]1NC(=O)[C@H]2C[C@@H](C(=O)O)[C@@H](c3cccc(OCCO)c3)N2C1=O` ?
HIGH

---

measured-on: Streptavidin (Streptomyces avidinii) (UniProt P22629)
Sequence (P22629 whole entry, looked up): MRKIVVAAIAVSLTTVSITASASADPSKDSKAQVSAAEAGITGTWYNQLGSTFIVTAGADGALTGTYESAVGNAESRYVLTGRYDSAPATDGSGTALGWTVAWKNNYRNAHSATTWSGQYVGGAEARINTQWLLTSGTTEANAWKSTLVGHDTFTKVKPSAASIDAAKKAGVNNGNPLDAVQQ
assay-method-text: streptavidin binders on small-molecule microarray, primary screen, artefact control for SMM compound annotation, biophysical, 635/667 nm fluorescence (AID 1147);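 also: signal reflects streptavidin binding to arrayed compounds as a control protein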
experimental-conditions: streptavidin binding, higher = more signal
Measured composite z-score values are reported for all entries that follow.
Number, no unit, nothing else.

| compound | measured-metric | endpoint-result |
| --- | --- | --- |
| COCC(=C=CC[C@@H](O)c1cccc(OCCO)c1)C[C@@H](O)COCc1ccccc1 | composite z-score | 0.709 |
| CCOC(=O)C1=CC[C@@H](c2ccccc2)N(S(=O)(=O)C[Si](C)(C)C)[C@H]1c1ccccc1 | composite z-score | 1.48 |
| CC(C)(C)N1CC=CC23O[C@@H]4/C=C\CCCOC(=O)C4[C@H]2C(=O)N(CCCCCCO)[C@@H]3C1=O (stereo partly drawn) | composite z-score | -1 |
| COc1ccc([Si](C)(C)[C@H]2[C@H](CCO)O[C@@]3(C(=O)N(Cc4ccc(N5CCOC5=O)cc4)c4ccccc43)[C@@H]2C)cc1 | composite z-score | 0.346 |

Request the reported composite z-score associated with `CCCC[C@@H]1C[C@H]1[C@@H](NC(=O)Cc1ccccc1)c1ccc(Cl)cc1`
2.32

// query: `O=C1c2ccccc2[C@@]2(Cc3ccccc3N(Cc3ccccc3)C2=O)[C@H](c2ccc(CO)cc2)N1Cc1ccccc1`
-0.0807

Now try `CC(C)CNC(=O)[C@@H]1c2ccccc2C(=O)N(C2Cc3ccccc3C2)[C@H]1c1ccc(CO)cc1` .
-0.861

Similarly, `CN(C)CCCC[C@@H]1NC(=O)[C@@H]2C[C@H](C(=O)NCc3ccc(F)cc3)[C@H](c3ccc(O)cc3)N2C1=O` ?
-0.574
